Parameter viability at 24 h, 50 µM: see the listing below.
- PROTOCOL_NOTES: MTT assay, Hek293T non-leukemic control cells
- Type: cell-based
- ASSAY_SETUP: human, Hek293T cells (non-leukemic control cell line), 50 μM, read-out: Viability rate

Look up viability at 24 h, 50 µM: "Cc1ccc(NC(=O)c2ccc(CN3CCN(c4ncccn4)CC3)cc2)cc1Nc1cnccn1"
64.5%

Item: "Cc1ccnc(Nc2cc(NC(=O)c3ccc(CN4CCN(c5ncccn5)CC4)cc3)ccc2C)n1"
54.1%

Item: "Cc1ccnc(Nc2cc(NC(=O)c3ccc(CN4CCOCC4)cc3)ccc2C)n1"
81.3%

###

- Test system: K562
- PROTOCOL_NOTES: MTT assay, K562 cells
- Format: cell-based
- ASSAY_SETUP: Homo sapiens; K562, 0.3 μM, 24 h, MTT; read-out: Viability rate
MEASUREMENT_TYPE: viability at 0.3 µM

COMPOUND	RESULT
Cc1ccc(NC(=O)c2ccc(CN3CCN(C)CC3)cc2)cc1Nc1nccc(-c2cccnc2)n1 [imatinib, reference compound]	98%
Cc1ccnc(Nc2cc(NC(=O)c3ccc(CN4CCOCC4)cc3)ccc2C)c1	79.9%
Cc1ccnc(Nc2cc(NC(=O)c3ccc(CN4CCOCC4)cc3)ccc2C)n1	86.2%
COc1ccc(CN2CCN(Cc3ccc(C(=O)Nc4ccc(C)c(Nc5cc(C)ccn5)c4)cc3)CC2)c(OC)c1OC	104%
Cc1ccc(NC(=O)c2ccc(CN3CCN(c4ncccn4)CC3)cc2)cc1Nc1cnccn1	84.6%

Now consider the entry below.
Look up viability at 0.3 µM: "COc1ccc(CN2CCN(Cc3ccc(C(=O)Nc4ccc(C)c(Nc5nccc(C)n5)c4)cc3)CC2)c(OC)c1OC"
92.5%

###

Parameter viability at 24 h, 0.5 µM: see the listing below.
- PROTOCOL_NOTES: MTT assay, Hek293T non-leukemic control cells
- Format: cell-based
- ASSAY_SETUP: human, Hek293T cells (non-leukemic control cell line), 0.5 μM, read-out: Viability rate
All answers are understood in %, so give the number only.

// known answers, use as guide
MOLECULE	QUANTITATIVE_RESULT
COc1ccc(CN2CCN(Cc3ccc(C(=O)Nc4ccc(C)c(Nc5cc(C)ccn5)c4)cc3)CC2)c(OC)c1OC [Compound 10]	78.2
Cc1ccnc(Nc2cc(NC(=O)c3ccc(CN4CCOCC4)cc3)ccc2C)n1 [Compound 8]	94.8
COc1ccc(CN2CCN(Cc3ccc(C(=O)Nc4ccc(C)c(Nc5nccc(C)n5)c4)cc3)CC2)c(OC)c1OC [Compound 6]	90.8
Cc1ccc(NC(=O)c2ccc(CN3CCN(c4ncccn4)CC3)cc2)cc1Nc1cnccn1 [Compound 7]	87.6
Cc1ccc(NC(=O)c2ccc(CN3CCN(C)CC3)cc2)cc1Nc1nccc(-c2cccnc2)n1 [imatinib, reference compound]	78.6

Now consider the entry below.
Look up viability at 24 h, 0.5 µM: Cc1ccnc(Nc2cc(NC(=O)c3ccc(CN4CCOCC4)cc3)ccc2C)c1 [Compound 9]
89.8

###

- PROTOCOL_NOTES: MTT assay, Hek293T non-leukemic control cells
- Type: cell-based
- ASSAY_SETUP: human, Hek293T cells (non-leukemic control cell line), 10 μM, read-out: Viability rate
Response field label: string, one of T (viability at 24 h, 10 µM strictly below 80%) or F.

Previously resolved entries follow.
COMPOUND	DISCRETE_LABEL
Cc1ccnc(Nc2cc(NC(=O)c3ccc(CN4CCN(c5ncccn5)CC4)cc3)ccc2C)n1	T
Cc1ccc(NC(=O)c2ccc(CN3CCN(C)CC3)cc2)cc1Nc1nccc(-c2cccnc2)n1 [imatinib, reference compound]	T

Turning to the following compound.
Lab log: compare recorded viability at 24 h, 10 µM with 80%; is it strictly lower for "Cc1ccnc(Nc2cc(NC(=O)c3ccc(CN4CCOCC4)cc3)ccc2C)n1" ?
F
